- Tested on: SULT2B1b-mediated CS production in E0771-SULT cells
- procedureSummary: CS production inhibitory effect in E0771-SULT cells (LC/MS/MS quantification of CS)
- Assay type: cell-based, mouse
- runConditions: Mus musculus, 24 h, read-out: CS production % activity at 10 μM, E0771-SULT cells, 24 hours, test compound 10 μM (Table 1); relative to control (100%)
measurementLabel: activity at 10 µM
Kindly write the number and append the unit.

Some entries whose results are on file:
// query Could you please provide reported activity at 10 µM for C[C@H](CCC(=O)N(Cc1ccccc1)Cc1ccccc1)[C@H]1CC[C@H]2[C@@H]3CC=C4C[C@@H](OC(=O)C(F)(F)F)CC[C@]4(C)[C@H]3CC[C@]12C ? Thanks!
// result 59%

// query Could you please provide reported activity at 10 µM for CC(=O)C1=CC[C@H]2[C@@H]3CC=C4CC(OC(=O)CCN5CCOCC5)CC[C@]4(C)[C@H]3CC[C@]12C (stereo partly drawn) ? Thanks!
// result 40.9%

// query Could you please provide reported activity at 10 µM for C[C@H](CCC(=O)O)[C@H]1CC[C@H]2[C@@H]3CC=C4C[C@@H](OC(=O)C(F)(F)F)CC[C@]4(C)[C@H]3CC[C@]12C ? Thanks!
// result 34%

// query Could you please provide reported activity at 10 µM for COC(=O)CC[C@@H](C)[C@H]1CC[C@H]2[C@@H]3CC=C4C[C@@H](O)CC[C@]4(C)[C@H]3CC[C@]12C ? Thanks!
// result 48.1%

// query Could you please provide reported activity at 10 µM for COC(=O)C1CCCN1C(=O)CCC(=O)OCC(=O)C1(OC(C)=O)CCC2C3CCC4=CC(=O)CCC4(C)C3CCC21C (stereo not drawn) ? Thanks!
// result 60.6%

Okay, now this compound:
// query Could you please provide reported activity at 10 µM for C[C@H](CCC(=O)N1CCOCC1)[C@H]1CC[C@H]2[C@@H]3CC=C4C[C@H](N=[N+]=[N-])CC[C@]4(C)[C@H]3CC[C@]12C ? Thanks!
// result 98.4%

---

- Tested on: SULT2B1b-mediated CS production in E0771-SULT cells
- procedureSummary: CS production inhibitory effect in E0771-SULT cells (LC/MS/MS quantification of CS)
- Assay type: cell-based, mouse
- runConditions: Mus musculus, 24 h, read-out: CS production % activity at 20 μM, E0771-SULT cells, 24 hours, test compound 20 μM; relative to control without compound (100%)
measurementLabel: activity at 20 µM (%)
Your answer should be a plain number; it is taken to be in %.

Some entries whose results are on file:
// query Could you please provide reported activity at 20 µM for C[C@H](CCC(=O)O)[C@H]1CC[C@H]2[C@@H]3CC=C4C[C@@H](OC(=O)C(F)(F)F)CC[C@]4(C)[C@H]3CC[C@]12C [Compound 2] ? Thanks!
// result 36.8

// query Could you please provide reported activity at 20 µM for C#CCOCCOCCNC(=O)CC[C@@H](C)[C@H]1CC[C@H]2[C@@H]3CC=C4C[C@@H](OS(=O)(=O)O)CC[C@]4(C)[C@H]3CC[C@]12C [Compound 23] ? Thanks!
// result 70.1

// query Could you please provide reported activity at 20 µM for CC(=O)C1=CC[C@H]2[C@@H]3CC[C@H]4C[C@H](OC(=O)CCN5CCOCC5)CC[C@]4(C)[C@H]3CC[C@]12C [Compound 16] ? Thanks!
// result 42.3

// query Could you please provide reported activity at 20 µM for C#C[C@]1(O)CC[C@H]2[C@@H]3CC=C4C[C@@H](O)CC[C@]4(C)[C@H]3CC[C@@]21C [Compound 29] ? Thanks!
// result 45

Others:
// query Could you please provide reported activity at 20 µM for CC(=O)OC1CCC2(C)C(=CCC3C2CCC2(C)C(C(C)CCC(=O)O)CCC32)C1 (centres unmarked) [Compound 17, 3-acetoxy-5-cholenoic acid] ? Thanks!
// result 52.4

// query Could you please provide reported activity at 20 µM for CO[C@H]1CC[C@@]2(C)C(=CC[C@H]3[C@@H]4CC[C@H]([C@H](C)CCC(=O)O)[C@@]4(C)CC[C@@H]32)C1 [Compound 6] ? Thanks!
// result 70.3

// query Could you please provide reported activity at 20 µM for CC(=O)C1=CC[C@H]2[C@@H]3CC=C4CC(OC(=O)CCN5CCOCC5)CC[C@]4(C)[C@H]3CC[C@]12C (some centres unmarked) [Compound 15] ? Thanks!
// result 38.9

// query Could you please provide reported activity at 20 µM for C[C@H](CCC(=O)N(Cc1ccccc1)Cc1ccccc1)[C@H]1CC[C@H]2[C@@H]3CC=C4C[C@@H](OC(=O)C(F)(F)F)CC[C@]4(C)[C@H]3CC[C@]12C [Compound 7] ? Thanks!
// result 57.8

// query Could you please provide reported activity at 20 µM for COC(=O)C1CCCN1C(=O)CCC(=O)OCC(=O)C1(OC(C)=O)CCC2C3CCC4=CC(=O)CCC4(C)C3CCC21C (centres unmarked) [Compound 18] ? Thanks!
// result 54.8

// query Could you please provide reported activity at 20 µM for COC(=O)CC[C@@H](C)[C@H]1CC[C@H]2[C@@H]3CC=C4C[C@@H](O)CC[C@]4(C)[C@H]3CC[C@]12C [Compound 3] ? Thanks!
// result 56.8

// query Could you please provide reported activity at 20 µM for C#CCOCCNC(=O)CC[C@@H](C)[C@H]1CC[C@H]2[C@@H]3CC=C4C[C@@H](OS(=O)(=O)O)CC[C@]4(C)[C@H]3CC[C@]12C [Compound 21] ? Thanks!
// result 85.7

// query Could you please provide reported activity at 20 µM for C[C@H](CCC(=O)O)[C@H]1CC[C@H]2[C@@H]3CC=C4C[C@@H](O)CC[C@]4(C)[C@H]3CC[C@]12C [Compound 1] ? Thanks!
// result 30.8

// query Could you please provide reported activity at 20 µM for CCCCNC(=O)CC[C@@H](C)[C@H]1CC[C@H]2[C@@H]3CC=C4C[C@@H](OC(=O)C(F)(F)F)CC[C@]4(C)[C@H]3CC[C@]12C [Compound 8] ? Thanks!
// result 60.2

// query Could you please provide reported activity at 20 µM for CC(CCC(=O)N1CCSCC1)C1CCC2C3CC=C4CC(O)CCC4(C)C3CCC12C (centres unmarked) [Compound 9] ? Thanks!
// result 87.2
